Cited source: patent US20220112187A1

Subject of test: human TLR8 (Homo sapiens)
Sequence (Q9NR97 27-1041): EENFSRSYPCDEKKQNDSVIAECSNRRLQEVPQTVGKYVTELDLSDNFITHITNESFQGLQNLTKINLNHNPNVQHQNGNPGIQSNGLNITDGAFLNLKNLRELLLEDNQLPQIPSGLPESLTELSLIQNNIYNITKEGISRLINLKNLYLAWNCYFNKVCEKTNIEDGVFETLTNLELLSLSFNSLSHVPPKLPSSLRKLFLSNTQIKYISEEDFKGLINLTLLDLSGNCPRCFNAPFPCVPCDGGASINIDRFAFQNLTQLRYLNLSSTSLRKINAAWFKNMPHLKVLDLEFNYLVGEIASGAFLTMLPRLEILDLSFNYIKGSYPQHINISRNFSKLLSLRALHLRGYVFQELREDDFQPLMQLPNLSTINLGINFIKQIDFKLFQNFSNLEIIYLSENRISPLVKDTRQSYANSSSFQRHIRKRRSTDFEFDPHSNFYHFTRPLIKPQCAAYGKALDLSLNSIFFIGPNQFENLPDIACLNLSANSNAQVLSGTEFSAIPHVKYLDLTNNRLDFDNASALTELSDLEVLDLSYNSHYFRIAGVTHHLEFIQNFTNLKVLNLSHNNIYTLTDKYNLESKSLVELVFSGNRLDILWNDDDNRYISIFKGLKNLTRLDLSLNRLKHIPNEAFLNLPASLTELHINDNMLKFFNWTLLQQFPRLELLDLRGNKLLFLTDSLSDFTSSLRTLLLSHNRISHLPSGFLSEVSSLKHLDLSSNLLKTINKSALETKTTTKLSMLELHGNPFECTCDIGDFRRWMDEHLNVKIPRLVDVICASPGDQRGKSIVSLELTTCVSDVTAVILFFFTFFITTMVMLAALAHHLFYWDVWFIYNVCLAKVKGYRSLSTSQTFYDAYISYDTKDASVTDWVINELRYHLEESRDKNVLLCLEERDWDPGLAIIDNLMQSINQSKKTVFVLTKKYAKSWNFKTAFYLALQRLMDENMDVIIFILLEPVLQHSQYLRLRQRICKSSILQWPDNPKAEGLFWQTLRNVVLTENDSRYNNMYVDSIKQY
Procedure summary: HEK293-Blue-hTLR-8 cells assay (SEAP reporter, R848 stimulation)
Assay setup: HEK293-Blue-hTLR8 cells, R848 ligand, 20 hrs incubation
Give pIC50 for every item shown.
Give bare numbers, as −log10 of the molar value.

Some compounds with recorded pIC50:
1) C[C@@H]1CN(c2ccc(C#N)n3nccc23)C[C@H](CN2CCC3(CCNC3)C2)O1 (stereo partly drawn) | 6.85
2) C[C@@H]1CN(c2ccc(C#N)n3nccc23)C[C@H](CN2CC3(CCCNC3)C2)O1 | 6.89

Tested on human TLR8 (Homo sapiens), the item C[C@@H]1CN(c2ccc(C#N)n3nccc23)C[C@H](CN2CCC3(CC2)CNCCO3)O1 showed pIC50 equal to 7.02
